Origin of measurements: the supplement of paper PMC11451515

Exercise: for every item that follows, state its recorded cell viability.
Test system: SEM cells
Assay: cell viability relative to DMSO control; higher = less cytotoxic
Details: RPMI 5 mM glucose + 10% dialyzed FBS; 48 h; 1.71 µM
Answers are plain numbers, in %.

C\C1=C\C(=O)C2=C(C=CC=C2)C1=O : 111
CCOC(=O)[C@H](CCc1ccccc1)N[C@@H](C)C(=O)N1CCC[C@H]1C(=O)O : 101
NC(CO)(CO)CCc1ccc(Sc2cccc(OCc3ccccc3)c2)cc1Cl : 60.7
C[C@@H]1COCCN1C\2=C\C(=O)N\3CC[C@H](N(CC4=CN=CC(=C4)Cl)C3=N2)C(F)(F)F : 89.2

For every item in the list below, what is its measured cell viability?
1. CCOc1cc(N)c(Cl)cc1C(=O)NCC1CN(Cc2ccc(F)cc2)CCO1 (stereo not drawn)
2. Cc1cccc(C)c1OCC(=O)N[C@@H](Cc1ccccc1)[C@@H](O)C[C@H](Cc1ccccc1)NC(=O)[C@H](C(C)C)N1CCCNC1=O
3. CC(C)(C)c1cc(C=C(C#N)C#N)cc(Br)c1O
4. CC\1=C(C(=O)N(\C=C1)C2=CC=C(C=C2)C3=NC=CO3)/C4=CC5=CN=C(N)N=C5C=C4

1: 115; 2: 104; 3: 107; 4: 72.1
